Data credit: ChEMBL document CHEMBL5579837

experiment: in vitro; settings: PAMPA
Description: Permeability of compound by PAMPA based LC-MS analysis
RECORDED_METRIC: Papp (nm/s)
Field format: number, assumed nm/s, no unit text.

Name the recorded Papp of the compound listed here: O=c1[nH]c2c(N3CCN(CCc4c[nH]c5ccc(Cl)cc45)CC3)cccc2n1Cc1ccccc1 27.5

* * *

// endpoint Ki / system 5-hydroxytryptamine receptor 6 (Homo sapiens)
# value in µM; strip the unit string

CPD_SMILES: Cc1c(OCc2ccccc2)cccc1N1CCN(CCc2c[nH]c3ccc(Cl)cc23)CC1
Ki (µM): 0.142

Report its Ki with 5-hydroxytryptamine receptor 6 (Homo sapiens) as the test system: O=c1[nH]c2c(N3CCN(CCc4c[nH]c5ccc(Cl)cc45)CC3)cccc2n1Cc1ccccc1 0.008
